# key: entry, value: melting point

| COMPOUND | ENDPOINT LABEL | RESULT |
| --- | --- | --- |
| Br.CCN(C(=S)Nc1ccc(Cl)c(Cl)c1)c1ccc(Oc2ccc3c(c2)cc(C(=O)N2CCN(Cc4ccccc4)CC2)n3C)nc1 [Example 581] | melting point | 163 to 168 °C |
| CN(c1ccc(Oc2ccc3cc(C(=O)N4CCN(Cc5ccc(OCC(F)(F)F)cc5)CC4)n(C)c3c2)nc1)S(=O)(=O)CC(F)(F)F.Cl | melting point | 243.4 to 244.4 °C |

Which melting point reading was recorded for the compound Br.CCCOc1ccc(CN2CCN(C(=O)c3cc4ccc(Oc5ccc(N(C)C(=O)c6ccc(Cl)c(Cl)c6)cn5)cc4n3C)CC2)cc1 [Example 487] ?
204.9 to 208.5 °C

====

Catalogue of melting point values

The cases that follow already have their melting point on record.
| COMPOUND | melting point |
| --- | --- |
| COc1ccc(CN2CCN(C(=O)c3cc4cc(Oc5cc(C)c(NC(=O)c6ccc(C(F)(F)F)cc6)cn5)ccc4n3C)CC2)cc1.O=C(O)C(=O)O [Example 433] | 144 to 147 °C |
| Cc1ccc(S(=O)(=O)N(C)c2ccc(Oc3ccc4c(c3)cc(C(=O)N3CCN(Cc5ccc(OCC(F)(F)F)cc5)CC3)n4C)nc2)cc1.Cl | 239.1 to 239.8 °C |
| COc1ccc(CN2CCN(C(=O)c3cc4cc(Oc5ccc(N(C)C(=O)c6cc7cc(Br)ccc7[nH]6)cn5)ccc4n3C)CC2)cc1.O=C(O)/C=C\C(=O)O [Example 229] | 205 to 207 °C |
| COc1ccc(CN2CCN(C(=O)c3cc4cc(Oc5ccc(NC(=O)c6ccc(C(F)(F)F)cc6)cn5)ccc4n3C)[C@H](C)C2)cc1.O=C(O)C(=O)O [Example 393] | 161 to 163 °C |
| CCCOc1ccc(CN2CCN(C(=O)c3cc4cc(Oc5ccc(N(C)C(=O)c6ccc(C(F)(F)F)cc6)cn5)ccc4n3C)CC2)cc1.O=C(O)/C=C\C(=O)O [Example 413] | 144 to 147 °C |

Next, consider the following compound.
# input compound: Br.Br.COc1ccc(CN2CCN(C(=O)c3cc4cc(Oc5ccc(NC(=O)c6ccc(C(F)(F)F)cn6)cn5)ccc4n3C)CC2)cc1 [Example 230] ; wanted: its melting point
241 to 243 °C

====

Documented melting point across a set of compounds

Please review the following examples before continuing.
| STRUCTURE SMILES | melting point |
| --- | --- |
| Cn1c(C(=O)N2CCN(C(=O)c3ccccn3)CC2)cc2cc(Oc3ccc(NC(=O)c4ccc(C(F)(F)F)cc4)cn3)ccc21 | 162 to 164 °C |
| COc1ccc(C(=O)N2CCN(C(=O)c3cc4cc(Oc5ccc(N(C)C(=O)c6ccc(C(F)(F)F)cc6)cn5)ccc4n3C)CC2)cc1 | 126 to 128 °C |
| Br.CC(C)Cc1ccc(CN2CCN(C(=O)c3cc4ccc(Oc5ccc(NC(=O)c6ccc(Cl)c(Cl)c6)cn5)cc4n3C)CC2)cc1 | 255.8 to 257.4 °C |
| Br.Cc1cc(Oc2ccc3cc(C(=O)N4CCN(Cc5ccc(OC(F)F)cc5)CC4)n(C)c3c2)ncc1N(C)S(=O)(=O)c1ccc(Cl)c(Cl)c1 | 213.5 to 215.3 °C |
| Br.COc1ccc(CN2CCN(C(=O)c3cc4cc(Oc5ccc(NC(=O)c6ccc(Cl)c(Cl)c6)cn5)ccc4n3C)CC2)cc1 | 244 to 247 °C (dec.) |

Continue with the compound presented below.
Recorded melting point for COc1ccccc1CN1CCN(C(=O)c2cc3cc(Oc4ccc(NC(=O)c5ccc(C(F)(F)F)cc5)cn4)ccc3n2C)CC1.O=C(O)C(=O)O , please?
142 to 144 °C
